- assay: Octanol:water partition coefficients
- Assay type: physicochemical
- details: 10 mM Tris pH 7.4; read-out: Octanol/Water Partition Coefficient ± SD (converted)
measured-property: logD
Reply with the value as a number alone.

Task: Item COC(=O)CC(C)(C)OC(=O)c1cncn1[C@H](C)c1ccccc1 [β-dimethyl- methoxycarbonyl etomidate, β-dimethyl-MOC-etomidate] has what recorded logD?
Result: 3.2

Task: What do we get for COC(=O)C[C@H](C)OC(=O)c1cncn1[C@H](C)c1ccccc1 [β-(S)- methyl- methoxycarbonyl etomidate, β-S-methyl-MOC-etomidate] ?
Result: 2.68

Task: What do we get for COC(=O)[C@@H](C)COC(=O)c1cncn1[C@H](C)c1ccccc1 [α-(S)- methyl- methoxycarbonyl etomidate, α-S-methyl-methoxycarbonyl etomidate] ?
Result: 2.72

Task: What do we get for COC(=O)[C@H](OC(=O)c1cncn1[C@H](C)c1ccccc1)C(C)C [S-isopropyl-methoxycarbonyl metomidate] ?
Result: 3.46

Task: What do we get for COC(=O)C1(OC(=O)c2cncn2[C@H](C)c2ccccc2)CC1 [Cyclopropyl- methoxycarbonyl metomidate, cyclopropyl-methoxycarbonyl metomidate] ?
Result: 2.62

Task: What do we get for COC(=O)[C@@H](C)OC(=O)c1cncn1[C@H](C)c1ccccc1 [(R)-methyl- methoxycarbonyl metomidate, R-methyl-methoxycarbonyl metomidate] ?
Result: 2.58

Task: What do we get for COC(=O)c1cncn1[C@H](C)c1ccccc1 [Metomidate, reference compound] ?
Result: 2.58

Task: What do we get for COC(=O)C(C)(C)OC(=O)c1cncn1[C@H](C)c1ccccc1 [Dimethyl- methoxycarbonyl metomidate, dimethyl-methoxycarbonyl metomidate] ?
Result: 2.82

Task: What do we get for COC(=O)[C@H](C)COC(=O)c1cncn1[C@H](C)c1ccccc1 [α-(R)- methyl- methoxycarbonyl etomidate, α-R-methyl-methoxycarbonyl etomidate] ?
Result: 2.83

----------
Assign logD to each entry below.
- assay: Octanol:water partition coefficients
- Assay type: physicochemical
- details: 10 mM Tris pH 7.4; read-out: Octanol/Water Partition Coefficient ± SD (converted)

Task: Item COC(=O)C[C@@H](C)OC(=O)c1cncn1[C@H](C)c1ccccc1 [β-(R)- methyl- methoxycarbonyl etomidate, β-R-methyl-MOC-etomidate] has what recorded logD?
Result: 2.7

Task: What do we get for COC(=O)[C@H](C)OC(=O)c1cncn1[C@H](C)c1ccccc1 [(S)-methyl- methoxycarbonyl metomidate, S-methyl-methoxycarbonyl metomidate] ?
Result: 2.52

Task: What do we get for COC(=O)C(C)(C)COC(=O)c1cncn1[C@H](C)c1ccccc1 [α-dimethyl- methoxycarbonyl etomidate, α-dimethyl-MOC-etomidate] ?
Result: 3.35

Task: What do we get for COC(=O)CCOC(=O)c1cncn1[C@H](C)c1ccccc1 [Methoxycarbonyl etomidate, methoxycarbonyl etomidate, reference compound] ?
Result: 2.28

Task: What do we get for COC(=O)COC(=O)c1cncn1[C@H](C)c1ccccc1 [Methoxycarbonyl metomidate, methoxycarbonyl metomidate] ?
Result: 2.2

Task: What do we get for COC(=O)[C@@H](OC(=O)c1cncn1[C@H](C)c1ccccc1)C(C)C [R-isopropyl-methoxycarbonyl metomidate] ?
Result: 3.58

----------
Assign half-life at 100 μM to each entry below.
- assay: In vitro metabolic half-life of hypnotics in rat blood
- Assay type: in vitro ADME
- details: Sprague-Dawley, rat, pooled heparinised whole blood, rat blood, 37° C., 100 μM; read-out: Blood Half-Life (95% CI)
Please respond with the number in s and leave the unit unwritten.

Task: Item COC(=O)C(C)(C)COC(=O)c1cncn1[C@H](C)c1ccccc1 [α-dimethyl- methoxycarbonyl etomidate, α-dimethyl-MOC-etomidate] has what recorded half-life at 100 μM?
Result: 156

Task: What do we get for COC(=O)[C@@H](OC(=O)c1cncn1[C@H](C)c1ccccc1)C(C)C [R-isopropyl-methoxycarbonyl metomidate] ?
Result: 9

Task: What do we get for COC(=O)CCOC(=O)c1cncn1[C@H](C)c1ccccc1 [Methoxycarbonyl etomidate, methoxycarbonyl etomidate, reference compound] ?
Result: 24.6

Task: What do we get for COC(=O)C1(OC(=O)c2cncn2[C@H](C)c2ccccc2)CC1 [Cyclopropyl- methoxycarbonyl metomidate, cyclopropyl-methoxycarbonyl metomidate] ?
Result: 34.2

Task: What do we get for COC(=O)c1cncn1[C@H](C)c1ccccc1 [Metomidate, reference compound] ?
Result: 8580

----------
- assay: In vitro metabolic half-life of hypnotics in rat blood
- Format: in vitro ADME
- details: Sprague-Dawley, rat, pooled heparinised whole blood, rat blood, 37° C., 100 μM; read-out: Blood Half-Life (95% CI)
- Protocol: On the day of study, whole blood was drawn from the femoral venous catheters of 3 Sprague-Dawley rats (1-2 ml/rat), immediately anticoagulated with heparin (38 U), pooled, and stored on ice. A 1 ml aliquot of blood was warmed at 37° C. for 5 minutes and hypnotic (from a 40 mM in dimethyl sulfoxide stock solution) was added to a final concentration of 100 μM. […] The quenched samples were centrifuged and the resultant supernatant separated and stored at −20° C. until analyzed. […]
Classify by measured half-life at 100 μM: Condition met if it is equal to or exceeds 10 s, Condition not met if it is smaller.

Task: Please tell me: is the compound COC(=O)C[C@@H](C)OC(=O)c1cncn1[C@H](C)c1ccccc1 [β-(R)- methyl- methoxycarbonyl etomidate, β-R-methyl-MOC-etomidate] at or over 10 s in terms of half-life at 100 μM?
Result: Condition met

Task: What do we get for COC(=O)[C@H](C)COC(=O)c1cncn1[C@H](C)c1ccccc1 [α-(R)- methyl- methoxycarbonyl etomidate, α-R-methyl-methoxycarbonyl etomidate] ?
Result: Condition met

Task: What do we get for COC(=O)C[C@H](C)OC(=O)c1cncn1[C@H](C)c1ccccc1 [β-(S)- methyl- methoxycarbonyl etomidate, β-S-methyl-MOC-etomidate] ?
Result: Condition met

Task: What do we get for COC(=O)CC(C)(C)OC(=O)c1cncn1[C@H](C)c1ccccc1 [β-dimethyl- methoxycarbonyl etomidate, β-dimethyl-MOC-etomidate] ?
Result: Condition met

Task: What do we get for COC(=O)[C@H](C)OC(=O)c1cncn1[C@H](C)c1ccccc1 [(S)-methyl- methoxycarbonyl metomidate, S-methyl-methoxycarbonyl metomidate] ?
Result: Condition not met

----------
- assay: Pharmacokinetics in dogs, IV bolus and bolus plus infusion
- Type: in vivo, dog
- details: both sexes, dog, in vivo, IV bolus, read-out: secondary terminal elimination half-life
measured-property: half-life

Task: Item COC(=O)C1(OC(=O)c2cncn2[C@H](C)c2ccccc2)CC1 [Cyclopropyl- methoxycarbonyl metomidate, cyclopropyl-methoxycarbonyl metomidate] has what recorded half-life?
Result: 5 to 10 min

----------
- assay: in vivo
- details: both, rat, iv
measured-property: concentration at 24 h

Task: Item COC(=O)C1(OC(=O)c2cncn2[C@H](C)c2ccccc2)CC1 [Cyclopropyl- methoxycarbonyl metomidate, cyclopropyl-methoxycarbonyl metomidate] has what recorded concentration at 24 h?
Result: < 0.1 ng/mL

----------
- assay: In vitro metabolic half-life of hypnotics in rat blood
- Type: in vitro ADME
- details: Sprague-Dawley, rat, rat blood; bound based on the lower limit of quantification; read-out: metabolic half-life in rat blood (converted)
measured-property: half-life at 100 μM (s)
Please respond with the number in s and leave the unit unwritten.

Task: Item COC(=O)CCOC(=O)c1cncn1[C@H](C)c1ccccc1 [Methoxycarbonyl etomidate, methoxycarbonyl etomidate, reference compound] has what recorded half-life at 100 μM?
Result: 20

----------
- assay: In vitro metabolic half-life of hypnotics in rat blood
- Format: in vitro ADME
- details: Sprague-Dawley, rat, rat blood, 37° C., 100 μM; read-out: Blood Half-Life (95% CI)
measured-property: half-life at 100 μM (min)
Please respond with the number in min and leave the unit unwritten.

Task: Item COC(=O)C(C)(C)OC(=O)c1cncn1[C@H](C)c1ccccc1 [Dimethyl- methoxycarbonyl metomidate, dimethyl-methoxycarbonyl metomidate] has what recorded half-life at 100 μM?
Result: 8.7

Task: What do we get for COC(=O)CCOC(=O)c1cncn1[C@H](C)c1ccccc1 [Methoxycarbonyl etomidate, methoxycarbonyl etomidate, reference compound] ?
Result: 0.14

----------
Assign half-life at 100 μM to each entry below.
- assay: In vitro metabolic half-life of hypnotics in rat blood
- Assay type: in vitro ADME
- details: Sprague-Dawley, rat, pooled heparinised whole blood, rat blood, 37° C., 100 μM; read-out: Blood Half-Life (95% CI)
Please respond with the number in s and leave the unit unwritten.

Task: Item COC(=O)[C@@H](C)COC(=O)c1cncn1[C@H](C)c1ccccc1 [α-(S)- methyl- methoxycarbonyl etomidate, α-S-methyl-methoxycarbonyl etomidate] has what recorded half-life at 100 μM?
Result: 45.6

Task: What do we get for COC(=O)[C@H](OC(=O)c1cncn1[C@H](C)c1ccccc1)C(C)C [S-isopropyl-methoxycarbonyl metomidate] ?
Result: 930

----------
- target-or-test-system: human α1(L264T), β2 and γ2L subunits of the GABAA receptor (Homo sapiens, UniProt P14867+P47870, L291T)
- Sequence (P14867 28-456 L291T): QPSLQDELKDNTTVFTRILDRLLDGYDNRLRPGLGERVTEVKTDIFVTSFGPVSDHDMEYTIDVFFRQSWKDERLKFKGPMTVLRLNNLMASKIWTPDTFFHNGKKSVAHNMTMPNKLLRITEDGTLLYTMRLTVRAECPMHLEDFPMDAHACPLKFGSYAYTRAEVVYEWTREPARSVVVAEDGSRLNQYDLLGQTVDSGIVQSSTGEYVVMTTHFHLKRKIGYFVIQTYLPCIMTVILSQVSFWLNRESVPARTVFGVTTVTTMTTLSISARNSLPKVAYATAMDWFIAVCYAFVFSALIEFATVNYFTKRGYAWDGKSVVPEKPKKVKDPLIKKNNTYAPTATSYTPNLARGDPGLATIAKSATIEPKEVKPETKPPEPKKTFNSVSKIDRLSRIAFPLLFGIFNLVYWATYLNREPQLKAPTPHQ
- Sequence (P47870 25-512 limits assumed): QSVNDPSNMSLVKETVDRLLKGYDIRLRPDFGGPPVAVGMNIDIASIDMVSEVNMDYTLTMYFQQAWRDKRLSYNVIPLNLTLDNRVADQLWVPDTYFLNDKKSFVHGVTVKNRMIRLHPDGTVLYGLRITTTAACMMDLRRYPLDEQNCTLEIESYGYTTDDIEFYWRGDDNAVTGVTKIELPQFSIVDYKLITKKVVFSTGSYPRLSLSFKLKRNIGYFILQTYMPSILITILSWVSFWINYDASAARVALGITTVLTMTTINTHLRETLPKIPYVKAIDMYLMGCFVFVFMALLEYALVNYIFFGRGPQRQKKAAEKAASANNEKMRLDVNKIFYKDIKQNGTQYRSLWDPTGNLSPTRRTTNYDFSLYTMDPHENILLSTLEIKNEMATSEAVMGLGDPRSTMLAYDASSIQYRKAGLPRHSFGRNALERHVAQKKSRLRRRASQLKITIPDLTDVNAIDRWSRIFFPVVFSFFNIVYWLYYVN
- Sequence (P18507 40-475 partner): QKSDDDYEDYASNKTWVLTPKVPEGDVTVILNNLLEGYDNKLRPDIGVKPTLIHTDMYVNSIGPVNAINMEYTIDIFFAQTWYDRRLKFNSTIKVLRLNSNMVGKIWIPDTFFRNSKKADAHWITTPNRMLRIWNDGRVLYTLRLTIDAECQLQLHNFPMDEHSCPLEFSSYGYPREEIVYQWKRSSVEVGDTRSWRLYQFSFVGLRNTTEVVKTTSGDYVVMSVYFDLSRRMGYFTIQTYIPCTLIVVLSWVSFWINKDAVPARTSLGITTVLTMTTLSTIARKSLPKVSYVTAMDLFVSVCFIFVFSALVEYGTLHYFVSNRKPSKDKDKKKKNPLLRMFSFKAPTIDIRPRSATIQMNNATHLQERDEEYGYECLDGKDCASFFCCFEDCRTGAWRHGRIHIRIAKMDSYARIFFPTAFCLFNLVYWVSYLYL
- assay: GABAA receptor current in Xenopus oocytes, 2-electrode voltage clamp
measured-property: EC50 (µM)
Please respond with the number in µM and leave the unit unwritten.

Task: Item COC(=O)C1(OC(=O)c2cncn2[C@H](C)c2ccccc2)CC1 [Cyclopropyl- methoxycarbonyl metomidate, cyclopropyl-methoxycarbonyl metomidate] has what recorded EC50?
Result: 5.8
